# Test system: Leishmania braziliensis
# experimental.protocol: Antileishmanial activity against Leishmania (Viannia) braziliensis HMOM/COL/88/UA301-EGFP intracellular amastigotes infected in human U937 cells after 72 hrs by flow cytometric analysis
# Assay type: functional, organism-based
# details: HMOM/COL/88/UA301, U-937, 72 h
readout.name: pEC50
Please express pEC50 as -log10 of the molar concentration.

Problem: Any idea what pEC50 came out for `CCOC(=O)[C@]1(C)CCC[C@@]2(C)[C@@H]3CC=C(C)C[C@@]3(CC#N)CC[C@@H]21` on Leishmania braziliensis?
Solution: 4.85

Problem: Leishmania braziliensis / pEC50 / `C[C@]12C=C[C@@]3(CC[C@@H]4[C@](C)(CO)CCC[C@@]4(C)[C@@H]3CC1)C2` : value?
Solution: 4.80

Problem: Item `Cc1ccc(S(=O)(=O)N/N=C2/C[C@]34CC[C@H]5[C@@](C)(CCC[C@@]5(C)C(=O)O)[C@@H]3CC[C@@]2(C)C4)cc1` with Leishmania braziliensis - pEC50?
Solution: 5.64

***
Problem: I'm curious: which pEC50 was measured for `C[C@]12CC[C@H]3[C@]4(C)CCC[C@@](C)(C(=O)O)[C@H]4CC[C@@]3(C1)[C@H]1O[C@H]12` tested on Leishmania braziliensis?
Solution: 4.36

====

Let's look at some molecules and their measured selectivity ratio.
# experimental.protocol: Selectivity index, ratio of LC50 for human U937 cells to EC50 for Leishmania (Viannia) braziliensis HMOM/COL/88/UA301-EGFP intracellular amastigotes infected in human U937 cells
# Type: toxicity, cell-based
# details: read-out: Selectivity Index
API note: the answer field is a bare number with no unit suffix.

Problem: Endpoint output: selectivity ratio of `Cc1ccc(S(=O)(=O)N/N=C2/C[C@]34CC[C@H]5[C@@](C)(CCC[C@@]5(C)C(=O)O)[C@@H]3CC[C@@]2(C)C4)cc1` . Value?
Solution: 3.1

Problem: Given the entry `CCOC(=O)[C@]1(C)CCC[C@@]2(C)[C@@H]3CC[C@@]4(C)C[C@]3(CC[C@@H]21)C/C4=N/NS(=O)(=O)c1ccc(C)cc1` , report its measured selectivity ratio.
Solution: 3.5

Continuing:
Problem: For the molecule `CCOC(=O)[C@]1(C)CCC[C@@]2(C)[C@@H]3CC[C@@]4(C)C[C@]3(CC[C@@H]21)CC4=O` , what selectivity ratio is on record?
Solution: 0.86
